assay-system: VchCAα (Vibrio cholerae, UniProt Q9KMP6)
Sequence (Q9KMP6 21-239): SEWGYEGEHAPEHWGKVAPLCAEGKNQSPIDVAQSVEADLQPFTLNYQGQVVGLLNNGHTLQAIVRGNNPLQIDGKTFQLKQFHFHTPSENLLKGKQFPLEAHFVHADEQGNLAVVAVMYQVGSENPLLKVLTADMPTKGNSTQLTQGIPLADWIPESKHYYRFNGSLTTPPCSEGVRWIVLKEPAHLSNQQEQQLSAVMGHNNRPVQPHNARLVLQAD
endpoint-label: Ki (µM)

compound="COc1cccc(NC(=O)NCc2cn(CCCCS(N)(=O)=O)nn2)c1 [compound 22, 22]" assay_system="VchCAα (Vibrio cholerae, UniProt Q9KMP6)" endpoint_label=Ki measured_result=14
compound="COc1ccc(OCc2cn(CCCCS(N)(=O)=O)nn2)cc1 [compound 16, 16]" assay_system="VchCAα (Vibrio cholerae, UniProt Q9KMP6)" endpoint_label=Ki measured_result=28.7
compound="Cc1ccc(NC(=O)NCc2cn(CCCCS(N)(=O)=O)nn2)cc1 [compound 19, 19]" assay_system="VchCAα (Vibrio cholerae, UniProt Q9KMP6)" endpoint_label=Ki measured_result=18.3
compound="NS(=O)(=O)CCCn1cc(CNC(=O)Nc2ccc(F)cc2)nn1 [compound 5, 5]" assay_system="VchCAα (Vibrio cholerae, UniProt Q9KMP6)" endpoint_label=Ki measured_result=13.4
compound="NS(=O)(=O)CCCCn1cc(COc2ccccc2)nn1 [compound 14, 14]" assay_system="VchCAα (Vibrio cholerae, UniProt Q9KMP6)" endpoint_label=Ki measured_result=34.4
compound="COc1cccc(NC(=O)NCc2cn(CCCS(N)(=O)=O)nn2)c1 [compound 9, 9]" assay_system="VchCAα (Vibrio cholerae, UniProt Q9KMP6)" endpoint_label=Ki measured_result=17.5
compound="NS(=O)(=O)CCCCn1cc(CNC(=O)Nc2ccc(F)cc2)nn1 [compound 18, 18]" assay_system="VchCAα (Vibrio cholerae, UniProt Q9KMP6)" endpoint_label=Ki measured_result=16.9
compound="NS(=O)(=O)CCCn1cc(CNC(=O)Nc2ccc(C(F)(F)F)cc2)nn1 [compound 7, 7]" assay_system="VchCAα (Vibrio cholerae, UniProt Q9KMP6)" endpoint_label=Ki measured_result=11.2
compound="NS(=O)(=O)CCCCn1cc(CNC(=O)Nc2ccc(C(F)(F)F)cc2)nn1 [compound 20, 20]" assay_system="VchCAα (Vibrio cholerae, UniProt Q9KMP6)" endpoint_label=Ki measured_result=16.8
compound="COc1ccc(OCc2cn(CCCS(N)(=O)=O)nn2)cc1 [compound 3, 3]" assay_system="VchCAα (Vibrio cholerae, UniProt Q9KMP6)" endpoint_label=Ki measured_result=16.5
compound="NS(=O)(=O)CCCn1cc(COc2ccccc2)nn1 [compound 1, 1]" assay_system="VchCAα (Vibrio cholerae, UniProt Q9KMP6)" endpoint_label=Ki measured_result=29.1

Recorded values, source paper PMC11650360.
